Every entry's value here was drawn from patent US11247976B2.

target: RhlR (Pseudomonas aeruginosa); construct: expressed in transfected cells; host or cells: E. coli JLD271 (ΔsdiA) with pJN105R2 (arabinose-induced) and pSC11-rhlI*; assay: E. coli RhlR reporter agonism assay (JLD271/pJN105R2/pSC11-rhlI*); assay type: cell-based, P. aeruginosa
reportedProperty: pEC50
Conceptually, pEC50 converts a concentration in mol/L into minus its log10.

Find the measured pEC50: item `CC(C)C(=O)N[C@H]1CCOC1=O` , target or system RhlR (Pseudomonas aeruginosa). 5.31

Find the measured pEC50: item `O=C(CC1CC1)N[C@H]1CCOC1=O` , target or system RhlR (Pseudomonas aeruginosa). 5.56

Find the measured pEC50: item `O=C(N[C@H]1CCCC1=O)C1CCC1` , target or system RhlR (Pseudomonas aeruginosa). 5.23

Find the measured pEC50: item `CC(C)CC(=O)N[C@H]1CCCC1=O` , target or system RhlR (Pseudomonas aeruginosa). 5.12

Find the measured pEC50: item `CC(C)CC(=O)N[C@H]1CCOC1=O` , target or system RhlR (Pseudomonas aeruginosa). 5.99

Find the measured pEC50: item `O=C(N[C@H]1CCSC1=O)C1CCC1` , target or system RhlR (Pseudomonas aeruginosa). 5.76

---

biological target: RhlR (Pseudomonas aeruginosa, UniProt P54292); construct: expressed in transfected cells; host or cells: E. coli JLD271 (ΔsdiA) with pJN105R2 (arabinose-induced) and pSC11-rhlI*; experiment: E. coli RhlR reporter agonism assay (JLD271/pJN105R2/pSC11-rhlI*); format: cell-based, P. aeruginosa; conditions: single-concentration screen at 10 μM, E. coli reporter
Sequence (P54292 whole entry): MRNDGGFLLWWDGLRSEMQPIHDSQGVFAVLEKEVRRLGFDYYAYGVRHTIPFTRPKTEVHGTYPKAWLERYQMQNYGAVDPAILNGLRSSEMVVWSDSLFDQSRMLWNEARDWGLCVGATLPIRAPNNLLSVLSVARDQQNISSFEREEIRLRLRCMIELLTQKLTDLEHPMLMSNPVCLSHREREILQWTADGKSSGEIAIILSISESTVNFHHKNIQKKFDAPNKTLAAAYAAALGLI
reportedProperty: RhlR agonist activity in words

{"smiles": "CCC(C)(C)C(=O)N[C@H]1CCOC1=O", "reportedProperty": "RhlR agonist activity in words", "endpointResult": "inactive as agonists"}
{"smiles": "CC(C)(C)C(=O)N[C@H]1CCOC1=O", "reportedProperty": "RhlR agonist activity in words", "endpointResult": "inactive as agonists"}

---

target: RhlR (Pseudomonas aeruginosa, UniProt P54292); construct: expressed in transfected cells; host or cells: E. coli JLD271 (ΔsdiA) with pJN105R2 (arabinose-induced) and pSC11-rhlI*; assay: E. coli RhlR reporter antagonism assay vs 10 μM BHL (JLD271/pJN105R2/pSC11-rhlI*); format: cell-based, P. aeruginosa; details: read-out: % inhibition (10 μM), compound at 10 μM in the presence of 10 μM BHL; negative = agonism stronger than 10 μM BHL alone
For each of the compounds below, state its inhibition at 10 µM.
Number in %, nothing else.

inhibition at 10 µM for CCC(C)C(=O)N[C@H]1CCOC1=O (stereo partly drawn) [Compound J19] ? -24

inhibition at 10 µM for CCCCC(=O)N[C@H]1CCOC1=O [Compound C5-AHL] ? -18

inhibition at 10 µM for O=C(N[C@H]1CCCC1=O)C1CCC1 [RN12] ? -39

inhibition at 10 µM for CCC(C)(C)C(=O)N[C@H]1CCOC1=O [Compound J21] ? 3

inhibition at 10 µM for CC(C)CC(=O)NC1CCCC1 [RN39] ? 11

inhibition at 10 µM for C/C=C\CC(=O)N[C@H]1CCOC1=O [Compound J5] ? -12

inhibition at 10 µM for O=C(N[C@H]1CCOC1=O)C1CCC1 [Compound J24, cyclobutanoyl AHL] ? -66

inhibition at 10 µM for CC(C)CC(=O)N[C@H]1CCSC1=O [RN37] ? -59

inhibition at 10 µM for CC(C)CC(=O)N[C@H]1CCCC1=O [RN36] ? -35

inhibition at 10 µM for CCCC(=O)NCC1CCCN1 (stereo not drawn) [RN11] ? -3

inhibition at 10 µM for C/C=C/CC(=O)N[C@H]1CCOC1=O [Compound J4] ? 9

inhibition at 10 µM for CCCC(=O)N[C@@H]1CCOC1=O [RN5] ? 1

---

molecular target: RhlR (Pseudomonas aeruginosa, UniProt P54292); construct: expressed in transfected cells; host or cells: E. coli JLD271 (ΔsdiA) with pJN105R2 (arabinose-induced) and pSC11-rhlI*; assay: P. aeruginosa RhlR reporter agonism assay (PAO-JP2/prhlI-LVAgfp); type: cell-based
reportedProperty: pEC50
Conceptually, pEC50 converts a concentration in mol/L into minus its log10.

pEC50 for CC(C)CC(=O)N[C@H]1CCSC1=O [RN37] ? 5.59

pEC50 for CC(C)CC(=O)N[C@H]1CCCC1=O [RN36] ? 4.95

pEC50 for CCCC(=O)N[C@H]1CCOC1=O [BHL, N-butanoyl L-homoserine lactone, reference compound] ? 5.09

pEC50 for CCCC(=O)N[C@H]1CCSC1=O [RN8] ? 4.84

pEC50 for CC(C)CC(=O)N[C@H]1CCOC1=O [Compound J18, isovaleryl HL] ? 5.85

pEC50 for O=C(N[C@H]1CCOC1=O)C1CCC1 [Compound J24, cyclobutanoyl AHL] ? 5.85

pEC50 for O=C(N[C@H]1CCCC1=O)C1CCC1 [RN12] ? 5.13

pEC50 for O=C(N[C@H]1CCSC1=O)C1CCC1 [RN15] ? 5.78

---

biological target: RhlR (Pseudomonas aeruginosa); construct: expressed in transfected cells; host or cells: E. coli JLD271 (ΔsdiA) with pJN105R2 (arabinose-induced) and pSC11-rhlI*; assay: E. coli RhlR reporter agonism assay (JLD271/pJN105R2/pSC11-rhlI*); type: cell-based, P. aeruginosa; conditions: compound at 10 μM; RhlR activity relative to 1 mM BHL; E. coli reporter
For each of the compounds below, state its activation at 10 µM.
Number in %, nothing else.

activation at 10 µM for `O=C(COc1ccc(I)cc1)N[C@H]1CCSC1=O` ? 1

activation at 10 µM for `C=CCCCC(=O)N[C@H]1CCOC1=O` ? 41

activation at 10 µM for CCC(C)C(=O)N[C@H]1CCOC1=O (stereo partly shown) ? 55

activation at 10 µM for `CC(C)C(=O)N[C@H]1CCOC1=O` ? 62

activation at 10 µM for O=C(COc1ccc(I)cc1)NCC1CCCO1 (stereo not shown) ? 0

activation at 10 µM for `O=C(NC1CCCC1)C1CCC1` ? 0

activation at 10 µM for `CCCS(=O)(=O)N[C@H]1CCOC1=O` ? 1

activation at 10 µM for `CC(C)(C)C(=O)N[C@H]1CCOC1=O` ? 1

activation at 10 µM for `CC1(C(=O)N[C@H]2CCOC2=O)CC1` ? 2

activation at 10 µM for CCCC(=O)N[C@H]1CCOC1=O [BHL, N-butanoyl L-homoserine lactone, reference compound] ? 51

activation at 10 µM for `CCCC(=O)NC1CCCC1` ? 0

activation at 10 µM for `CCCC(=O)N[C@H]1CCSC1=O` ? 71

activation at 10 µM for `C#CCCC(=O)N[C@H]1CCOC1=O` ? 45

activation at 10 µM for `CCC(C)(C)C(=O)N[C@H]1CCOC1=O` ? 5

activation at 10 µM for CCCC(=O)NCC1CCCO1 (stereo not shown) ? 0

activation at 10 µM for `C#CCCCC(=O)N[C@H]1CCOC1=O` ? 34

activation at 10 µM for `C=CCC(=O)N[C@H]1CCOC1=O` ? 39

activation at 10 µM for `C/C=C/CC(=O)N[C@H]1CCOC1=O` ? 21

activation at 10 µM for CCCC(=O)NC1CCOC1 (stereo not shown) ? 0

activation at 10 µM for `CCCC(=O)N[C@@H]1CCOC1=O` ? 2

activation at 10 µM for `CC(C)CC(=O)NC1CCCC1` ? 0

activation at 10 µM for `O=C(N[C@H]1CCOC1=O)C1CCC1` ? 79

activation at 10 µM for CCCC(=O)NCC1CCCN1 (stereo not shown) ? 0

---

assay: Hydrolytic stability in buffers of varying pH by HPLC; format: physicochemical; conditions: pH 7, 1 mM TRIS buffer, room temperature
reportedProperty: half-life at 50 μM (days)
Number in days, nothing else.

half-life at 50 μM for `O=C(COc1ccc(I)cc1)N[C@H]1CCSC1=O` ? 47.2

half-life at 50 μM for O=C(COc1ccc(I)cc1)NC1CCOC1=O (centres unmarked) [Compound E22, reference compound] ? 2

---

assay: Hydrolytic stability in buffers of varying pH by HPLC; format: physicochemical; settings: pH 9, 1 mM TRIS buffer, room temperature
For each of the compounds below, state its half-life at 50 μM.
Number in h, nothing else.

half-life at 50 μM for O=C(COc1ccc(I)cc1)NC1CCOC1=O (centres unmarked) [Compound E22, reference compound] ? 2.3

half-life at 50 μM for `O=C(COc1ccc(I)cc1)N[C@H]1CCSC1=O` ? 52.4
